- Tested on: LS-513 (Colorectal Carcinoma);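 further: after 72 h of two-drug dosing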
- PROTOCOL_NOTES: Bliss excess, mean over the matrix (fraction); higher = more synergy
Each entry below lists one item and its recorded Bliss excess value.
MEASUREMENT_KIND: Bliss excess

{"MOLECULE": "C[C@@H]1COCCN1c1cc(C2([S@](C)(=N)=O)CC2)nc(-c2ccnc3[nH]ccc23)n1 [AZD6738] + C1CC(C1)(C(=O)[O-])C(=O)[O-].N.N.[Pt+2] [Carboplatin] (first compound max 10 µM, 7x7, partner max 10 µM)", "ASSAYED_TARGET": "LS-513 (Colorectal Carcinoma)", "RESULT_NUMBER": -0.0225}
{"MOLECULE": "O=C(c1cc(Cc2n[nH]c(=O)c3ccccc23)ccc1F)N1CCN(C(=O)C2CC2)CC1 [Olaparib] + Cc1c2c(nn1C)CSCc1cc(n(C)n1)CSc1cc(c3ccccc3c1)OCCCc1c(C(=O)O)n(C)c3c-2c(Cl)ccc13 [AZD5991] (first compound max 10 µM, 7x7, partner max 1 µM)", "ASSAYED_TARGET": "LS-513 (Colorectal Carcinoma)", "RESULT_NUMBER": -0.0082}
{"MOLECULE": "CC1(C)CCC(CN2CCN(c3ccc(C(=O)NS(=O)(=O)c4ccc(NCC5CCOCC5)c([N+](=O)[O-])c4)c(Oc4cnc5[nH]ccc5c4)c3)CC2)=C(c2ccc(Cl)cc2)C1 [Venetoclax] + C[C@@H]1COCCN1C2=NC(=NC(=C2)C3(CC3)[S@](=N)(=O)C)C4=C5C=CNC5=NC=C4 [AZD6738] (first compound max 1 µM, 7x7, partner max 10 µM)", "ASSAYED_TARGET": "LS-513 (Colorectal Carcinoma)", "RESULT_NUMBER": -0.0591}
{"MOLECULE": "C[C@@H](Nc1cc(F)cc(F)c1)c1cc(C(=O)N(C)C)cc2c(=O)cc(N3CCOCC3)oc12 [AZD8186] + CC(=O)c1c(C)c2cnc(Nc3ccc(N4CCNCC4)cn3)nc2n(C2CCCC2)c1=O [Palbociclib] (first compound max 10 µM, 7x7, partner max 10 µM)", "ASSAYED_TARGET": "LS-513 (Colorectal Carcinoma)", "RESULT_NUMBER": 0.0084}

---

- Tested on: OCI-AML2 (Acute Myeloid Leukemia)
- PROTOCOL_NOTES: combination Emax (second highest fraction inhibited in the dose matrix, 72 h); higher = more inhibition; extreme values may be limits of the assay
Each entry below lists one item and its recorded combination Emax value.

{"COMPOUND": "Cc1c2c(nn1C)CSCc1cc(n(C)n1)CSc1cc(c3ccccc3c1)OCCCc1c(C(=O)O)n(C)c3c-2c(Cl)ccc13 [AZD5991] + C[C@@H]1COCCN1C2=NC(=NC(=C2)C3(CC3)[S@](=N)(=O)C)C4=C5C=CNC5=NC=C4 [AZD6738] (first compound max 1 µM, 7x7, partner max 10 µM)", "combination Emax": 1}
{"COMPOUND": "N#Cc1cnc(Nc2cc(NC[C@H]3CNCCO3)c(C(F)(F)F)cn2)cn1 [SRA737] + O=c1[nH]cc(F)c(=O)[nH]1 [5-Fluorouracil] (first compound max 10 µM, 7x7, partner max 20 µM)", "combination Emax": 1}
{"COMPOUND": "CC1(C)CCC(CN2CCN(c3ccc(C(=O)NS(=O)(=O)c4ccc(NCC5CCOCC5)c([N+](=O)[O-])c4)c(Oc4cnc5[nH]ccc5c4)c3)CC2)=C(c2ccc(Cl)cc2)C1 [Venetoclax] + CCN(CCO)CCCOc1ccc2c(Nc3cc(CC(=O)Nc4cccc(F)c4)[nH]n3)ncnc2c1 [AZD2811] (first compound max 1 µM, 7x7, partner max 1 µM)", "combination Emax": 1}
{"COMPOUND": "C=CCn1c(=O)c2cnc(Nc3ccc(N4CCN(C)CC4)cc3)nc2n1-c1cccc(C(C)(C)O)n1 [AZD1775] + C[C@@H]1COCCN1C2=NC(=NC(=C2)C3(CC3)[S@](=N)(=O)C)C4=C5C=CNC5=NC=C4 [AZD6738] (first compound max 1 µM, partner max 10 µM)", "combination Emax": 1}
{"COMPOUND": "CN(CCO)CC[C@H](CSc1ccccc1)Nc1ccc(S(=O)(=O)NC(=O)c2ccc(N3CCC([C@@H](O)c4ccccc4-c4ccc(Cl)cc4)CC3)cc2)cc1S(=O)(=O)C(F)(F)F [AZD4320] + Cn1cnc2c(F)c(Nc3ccc(Br)cc3Cl)c(C(=O)NOCCO)cc21 [Selumetinib] (first compound max 1 µM, 7x7, partner max 3 µM)", "combination Emax": 1}
{"COMPOUND": "C=CCn1c(=O)c2cnc(Nc3ccc(N4CCN(C)CC4)cc3)nc2n1-c1cccc(C(C)(C)O)n1 [AZD1775] + CCc1c2c(nc3ccc(O)cc13)-c1cc3c(c(=O)n1C2)COC(=O)[C@]3(O)CC [SN-38] (first compound max 1 µM, partner max 0.3 µM)", "combination Emax": 1}
{"COMPOUND": "COc1nnc2ccc(N3CCC(c4ccc(OCCN5CCN(C)C(=O)[C@H]5C)cc4)CC3)nn12 [AZD5153] + C[C@@H]1COCCN1C2=NC(=NC(=C2)C3(CC3)[S@](=N)(=O)C)C4=C5C=CNC5=NC=C4 [AZD6738] (first compound max 1 µM, 7x7, partner max 10 µM)", "combination Emax": 1}
{"COMPOUND": "CC1(C)CCC(CN2CCN(c3ccc(C(=O)NS(=O)(=O)c4ccc(NCC5CCOCC5)c([N+](=O)[O-])c4)c(Oc4cnc5[nH]ccc5c4)c3)CC2)=C(c2ccc(Cl)cc2)C1 [Venetoclax] + CS(=O)(=O)CCNCc1ccc(-c2ccc3ncnc(Nc4ccc(OCc5cccc(F)c5)c(Cl)c4)c3c2)o1 [Lapatinib] (first compound max 1 µM, 7x7, partner max 10 µM)", "combination Emax": 1}
{"COMPOUND": "NC1(C(=O)N[C@@H](CCO)c2ccc(Cl)cc2)CCN(c2ncnc3[nH]ccc23)CC1 [Capivasertib] + COc1nnc2ccc(N3CCC(c4ccc(OCCN5CCN(C)C(=O)[C@H]5C)cc4)CC3)nn12 [AZD5153] (first compound max 10 µM, 7x7, partner max 1 µM)", "combination Emax": 1}

---

- System: MFH-ino (Other Solid Carcinomas)
- PROTOCOL_NOTES: combination Emax (second highest fraction inhibited in the dose matrix, 72 h); higher = more inhibition; extreme values may be limits of the assay
Tick TRUE if combination Emax is 0.2 or greater. Tick FALSE if combination Emax is less than 0.2.

{"MOLECULE": "CC(=O)Nc1cccc(-n2c(=O)n(C3CC3)c(=O)c3c(Nc4ccc(I)cc4F)n(C)c(=O)c(C)c32)c1 [Trametinib] + Cc1nc(-c2cn3c(n2)-c2ccc(-c4cnn(C(C)(C)C(N)=O)c4)cc2OCC3)n(C(C)C)n1 [Taselisib] (first compound max 1 µM, 7x7, partner max 10 µM)", "ASSAYED_TARGET": "MFH-ino (Other Solid Carcinomas)", "CATEGORY_LABEL": "TRUE"}
{"MOLECULE": "CN(C)CCCOc1ccc(-c2ccc3ncc4c(c3c2)n(C2CCOCC2)c(=O)n4C)cn1 [AZD0156] + C=CCn1c(=O)c2cnc(Nc3ccc(N4CCN(C)CC4)cc3)nc2n1-c1cccc(C(C)(C)O)n1 [AZD1775] (first compound max 1 µM, partner max 1 µM)", "ASSAYED_TARGET": "MFH-ino (Other Solid Carcinomas)", "CATEGORY_LABEL": "FALSE"}
{"MOLECULE": "CC1(C)CCC(CN2CCN(c3ccc(C(=O)NS(=O)(=O)c4ccc(NCC5CCOCC5)c([N+](=O)[O-])c4)c(Oc4cnc5[nH]ccc5c4)c3)CC2)=C(c2ccc(Cl)cc2)C1 [Venetoclax] + COc1cc(Nc2ncc3c(n2)-c2ccc(Cl)cc2C(c2c(F)cccc2OC)=NC3)ccc1C(=O)O [Alisertib] (first compound max 1 µM, 7x7, partner max 10 µM)", "ASSAYED_TARGET": "MFH-ino (Other Solid Carcinomas)", "CATEGORY_LABEL": "TRUE"}
{"MOLECULE": "C[C@@H](Oc1cc(-c2cnn(C3CCNCC3)c2)cnc1N)c1c(Cl)ccc(F)c1Cl [Crizotinib] + Cn1cnc2c(F)c(Nc3ccc(Br)cc3Cl)c(C(=O)NOCCO)cc21 [Selumetinib] (first compound max 10 µM, 7x7, partner max 10 µM)", "ASSAYED_TARGET": "MFH-ino (Other Solid Carcinomas)", "CATEGORY_LABEL": "TRUE"}
{"MOLECULE": "CS(=O)(=O)CCNCc1ccc(-c2ccc3ncnc(Nc4ccc(OCc5cccc(F)c5)c(Cl)c4)c3c2)o1 [Lapatinib] + NC1(c2ccc(-c3nc4ccn5c(=O)[nH]nc5c4cc3-c3ccccc3)cc2)CCC1 [MK-2206] (first compound max 10 µM, 7x7, partner max 10 µM)", "ASSAYED_TARGET": "MFH-ino (Other Solid Carcinomas)", "CATEGORY_LABEL": "FALSE"}
{"MOLECULE": "CN(C)CCCOc1ccc(-c2ccc3ncc4c(c3c2)n(C2CCOCC2)c(=O)n4C)cn1 [AZD0156] + CCN(CCO)CCCOc1ccc2c(Nc3cc(CC(=O)Nc4cccc(F)c4)[nH]n3)ncnc2c1 [AZD2811] (first compound max 1 µM, 7x7, partner max 1 µM)", "ASSAYED_TARGET": "MFH-ino (Other Solid Carcinomas)", "CATEGORY_LABEL": "FALSE"}

Attribution: the supplement of paper PMC11061612
